// data source = patent US7371748B2

# key: entry, value: Ki
assay_system: human adenosine A2A receptor (Homo sapiens, UniProt P29274)
Construct: expressed in transfected cells; host or cells: CHO cells, Semliki Forest virus expression system; membrane preparation
Sequence (P29274 whole entry): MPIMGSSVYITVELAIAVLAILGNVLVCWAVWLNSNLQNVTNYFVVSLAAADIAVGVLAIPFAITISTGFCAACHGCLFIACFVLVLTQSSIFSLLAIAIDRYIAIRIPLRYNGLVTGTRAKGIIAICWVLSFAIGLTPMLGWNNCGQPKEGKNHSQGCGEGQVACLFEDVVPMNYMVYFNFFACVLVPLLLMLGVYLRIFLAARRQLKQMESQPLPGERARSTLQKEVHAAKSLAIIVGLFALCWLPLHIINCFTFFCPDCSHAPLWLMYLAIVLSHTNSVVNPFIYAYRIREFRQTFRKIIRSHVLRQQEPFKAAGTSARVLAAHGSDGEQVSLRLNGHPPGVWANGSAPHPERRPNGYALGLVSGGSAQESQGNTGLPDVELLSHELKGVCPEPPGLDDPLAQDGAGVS
method_notes: [3H]-SCH-58261 binding assay, human adenosine A2A receptor
cond: human A2A receptor recombinantly expressed in CHO cell membranes; [3H]-SCH-58261 1 nM; Ki from IC50 by Cheng-Prussoff equation; read-out: Ha2 (pKi) (converted)
The reply should be a number in nM, with the unit left off.

// solved cases for Ki follow
>  <molecule>
COc1ccc(C2CCOCC2)c2sc(NC(=O)N(C)C3CC4CCC3O4)nc12 (single isomer, unassigned) [Example 55]

>  <measured_parameter>
Ki

>  <result_unit>
nM

>  <endpoint_value>
1.26

$$$$
>  <molecule>
COc1ccc(C2COCCOC2)c2sc(NC(=O)C3CCCCC3)nc12 [Example 11]

>  <measured_parameter>
Ki

>  <result_unit>
nM

>  <endpoint_value>
2.51

$$$$
>  <molecule>
COc1ccc(C2COCCOC2)c2sc(NC(=O)c3cnn(C)c3)nc12 [Example 43]

>  <measured_parameter>
Ki

>  <result_unit>
nM

>  <endpoint_value>
0.398

$$$$

Now consider a different molecule.
Give reported Ki for COc1ccc(C2CCOCC2)c2sc(NC(=O)N(C)[C@H]3CC[C@@](C)(O)CC3)nc12 [Example 23] (human adenosine A2A receptor (Homo sapiens, UniProt P29274))
2

* * *

measured_parameter: melting point

// solved cases for melting point follow
>  <molecule>
COc1ccc(C2CCOCC2)c2sc(NC(=O)N3CCC(CO)CC3)nc12 [Example 52]

>  <melting point>
202 to 203.5 °C

$$$$
>  <molecule>
COc1ccc(C2CCOCC2)c2sc(NC(=O)N(C)C3CCOCC3)nc12 [Example 24]

>  <melting point>
237 to 238 °C

$$$$
>  <molecule>
COc1ccc(C2CCOCC2)c2sc(NC(=O)N(C)CC3CCOC3)nc12 (centres unmarked) [Example 25]

>  <melting point>
185 to 186 °C

$$$$
>  <molecule>
COc1ccc(C2CCOCC2)c2sc(NC(=O)CC3CCCO3)nc12 (centres unmarked) [Example 54]

>  <melting point>
170 to 174 °C

$$$$

Now consider a different molecule.
Report measured melting point; entry is COc1ccc(C2CCOCC2)c2sc(NC(=O)N3CCC(C)(O)CC3)nc12 [Example 30]
90 to 95 °C

* * *

assay_system: human adenosine A2A receptor (Homo sapiens, UniProt P29274)
Construct: expressed in transfected cells; host or cells: CHO cells, Semliki Forest virus expression system; membrane preparation
method_notes: [3H]-SCH-58261 binding assay, human adenosine A2A receptor
cond: human A2A receptor recombinantly expressed in CHO cell membranes; [3H]-SCH-58261 1 nM; Ki from IC50 by Cheng-Prussoff equation; read-out: Ha2 (pKi) (converted)
Protocol: Human Adenosine A2A Receptor The human adenosine A2A receptor was recombinantly expressed in chinese hamster ovary (CHO) cells using the semliki forest virus expression system. […] Assay plates were incubated for 1 hour at room temperature before centrifugation and then bound ligand determined using a Packard Topcount scintillation counter. IC50 values were calculated using a non-linear curve fitting program and Ki values calculated using the Cheng-Prussoff equation.
# key: entry, value: Ki
The reply should be a number in nM, with the unit left off.

// solved cases for Ki follow
>  <molecule>
COc1ccc(C(=O)Nc2nc3c(OC)ccc(C4COCCOC4)c3s2)cc1 [Example 9]

>  <assay_system>
human adenosine A2A receptor (Homo sapiens, UniProt P29274)

>  <endpoint_value>
2

$$$$
>  <molecule>
COc1ccc(C2COCCOC2)c2sc(NC(=O)c3ccncc3)nc12 [Example 15]

>  <assay_system>
human adenosine A2A receptor (Homo sapiens, UniProt P29274)

>  <endpoint_value>
2

$$$$

Now consider a different molecule.
Report measured Ki; entry is COc1ccc(C2CCOCC2)c2sc(NC(=O)N3CC4CCC3CC4)nc12 [Example 32]
2
